Values were extracted from patent US6949521B2.

# assay-comment: in vivo
# stated-conditions: female, NIH Swiss, mouse, brain, oral, 100 mg/kg
property-label: Kp
Numbers only.

Field request: Kp | item: [N-]=[N+]=Nc1ncnc2c1ncn2[C@@H]1O[C@H](CO)[C@@H](O)[C@@H]1O
0.3

====

# assay-comment: Pharmacokinetics in mouse serum after iv and oral administration of cordycepin or its azide derivative
# Format: in vivo, mice
# stated-conditions: female, NIH Swiss, mouse, in vivo, po, 100 mg/kg
property-label: half-life
Don't forget the unit after the value.

Field request: half-life | item: O=c1[nH]cnc2c1ncn2[C@@H]1O[C@H](CO)C[C@H]1O [Metabolite, 3′-deoxyinosine]
39 min
